Form field: AIRE transcriptional activation functional score (one value per entry).
B1: library; numbered along this chain (parent)
chain: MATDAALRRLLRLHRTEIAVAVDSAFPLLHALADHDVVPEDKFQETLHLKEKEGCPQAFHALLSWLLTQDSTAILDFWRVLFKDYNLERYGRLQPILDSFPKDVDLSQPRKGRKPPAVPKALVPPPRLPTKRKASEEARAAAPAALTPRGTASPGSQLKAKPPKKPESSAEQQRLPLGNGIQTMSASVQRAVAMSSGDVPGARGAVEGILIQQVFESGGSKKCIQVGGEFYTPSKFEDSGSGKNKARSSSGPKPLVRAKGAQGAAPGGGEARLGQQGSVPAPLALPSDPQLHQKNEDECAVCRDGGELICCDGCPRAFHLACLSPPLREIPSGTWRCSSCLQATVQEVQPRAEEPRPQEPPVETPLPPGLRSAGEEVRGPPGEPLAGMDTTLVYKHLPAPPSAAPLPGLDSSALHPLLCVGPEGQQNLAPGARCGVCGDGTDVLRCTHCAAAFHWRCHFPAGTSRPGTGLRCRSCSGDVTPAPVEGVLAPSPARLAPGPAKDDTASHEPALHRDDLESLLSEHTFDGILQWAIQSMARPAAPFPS

- Variants of: B1
- test_details: AIRE transcriptional activation functional score (insulin promoter-GFP; nonsense median 0, synonymous median 1) (normalised score); higher = higher AIRE activity (more reporter activation)
- recorded_conditions: with insulin promoter-GFP reporter in HEK293
Reply with just the number.

Answered cases to consult:
• V188W = 0.518
• D36T = -0.367
• G180M = 0.445

Then this variant:
AIRE transcriptional activation functional score measured on E270A = 0.795
